Provide the recorded CC50 for the entries that follow.
experiment: MTT cell viability assay; format: cell-based, human; conditions: human; 1HAEo- cells, dose response; read-out: CC50 (cytotoxic concentration at which cell viability is reduced by half)

Challenge: Name the recorded CC50 of the item COC(=O)C1(c2c(-c3ccc(OC)cc3)[nH]c3ccccc23)Nc2cc(Br)ccc2C1=O (stereo not shown) in your answer.
Response given: 93.5 µM

Challenge: Report measured CC50; entry is COC(=O)C1(c2c(-c3ccc(OC)cc3)[nH]c3ccccc23)Nc2cc(Cl)ccc2C1=O (stereo not shown)
Response given: 59.2 µM

Challenge: Give reported CC50 value for COC(=O)C1(c2cn(C)c3ccccc23)Nc2cc(Cl)ccc2C1=O (stereo not shown)
Response given: 22.8 µM

Challenge: Give the reported CC50 for this compound. COC(=O)C1(c2c(-c3ccccc3)[nH]c3ccccc23)Nc2cc(Cl)ccc2C1=O (stereo not shown)
Response given: 42.5 µM
